protocol: Solubility of pure compound in water
Type: physicochemical
setup.conditions: 22° C.
measured.parameter: solubility

CC(C)CN(c1c([O-])c(=[N+](CC(C)C)C2CC(C)(C)NC(C)(C)C2)c1=O)C1CC(C)(C)NC(C)(C)C1 [Example 4] : < 100 µg/mL
CCCCCCN(c1c([O-])c(=[N+](CCCCCC)C2CC(C)(C)NC(C)(C)C2)c1=O)C1CC(C)(C)NC(C)(C)C1 [Example 5] : < 100 µg/mL
CC1(C)CC(N=c2c(O)c(NC3CC(C)(C)NC(C)(C)C3)c2=O)CC(C)(C)N1 [Example 1] : < 20 µg/mL

Query :: Give the value of solubility reported for the following: CC1(C)CC(OCCCN=c2c(O)c(NCCCOC3CC(C)(C)NC(C)(C)C3)c2=O)CC(C)(C)N1 [Example 9]
Result :: 2400 µg/mL

Query :: Report solubility, nothing else, for this molecule: CCCCN(c1c([O-])c(=[N+](CCCC)C2CC(C)(C)NC(C)(C)C2)c1=O)C1CC(C)(C)NC(C)(C)C1 [Example 3]
Result :: < 100 µg/mL

Query :: Provide solubility value for the following molecule: CCCCCCCCN(c1c([O-])c(=[N+](CCCCCCCC)C2CC(C)(C)NC(C)(C)C2)c1=O)C1CC(C)(C)NC(C)(C)C1 [Example 6]
Result :: < 100 µg/mL

====

protocol: Light exposure test (buckling test) with stabilizers in polyamide 12
setup.conditions: without costabilizer; 0.25% by wt. stabilizer (for salts: refers to the bisamide on which the salt is based)
measured.parameter: Stabilizing effect in polyamide 12, light exposure to break (h)
Numbers only here, please. The scale is h.

Consider the reported Stabilizing effect in polyamide 12, light exposure to break for these compounds:
CC1(C)CC(OCCCN=c2c(O)c(NCCCOC3CC(C)(C)NC(C)(C)C3)c2=O)CC(C)(C)N1 [Example 9] : 820
CC1(C)CC(N=c2c(O)c(NC3CC(C)(C)NC(C)(C)C3)c2=O)CC(C)(C)N1 [Example 1.3] : 683
CCN(CC)c1c([O-])c(=[N+](CC)CC)c1=O [C, reference compound] : 460
CC1(C)CC(N=c2c(O)c(NC3CC(C)(C)NC(C)(C)C3)c2=O)CC(C)(C)N1 [Example 1] : 790
CC1(C)CC(N=c2c(O)c(NC3CC(C)(C)NC(C)(C)C3)c2=O)CC(C)(C)N1 [Example 1.5] : 720
CC1(C)CC(N=c2c(O)c(NC3CC(C)(C)NC(C)(C)C3)c2=O)CC(C)(C)N1 [Example 1.2] : 780
C[C@@H]1CN(c2c([O-])c(=[N+]3C[C@@H](C)O[C@@H](C)C3)c2=O)C[C@H](C)O1 [E, reference compound] : 432

Attention now turns to another entry.
Query :: Write down Stabilizing effect in polyamide 12, light exposure to break measured for item O=c1c(N2CCCCC2)c([O-])c1=[N+]1CCCCC1 [G, reference compound]
Result :: 530

====

protocol: Solubility of pure compound in 10% acetic acid
Format: physicochemical
setup.conditions: 22° C.
measured.parameter: Solubility of pure compound in 10% acetic acid

Answered cases to consult:
CC1(C)CC(N=c2c(O)c(NC3CC(C)(C)NC(C)(C)C3)c2=O)CC(C)(C)N1 [Example 1.2] : 2.4 g/100 g 10% HAc
CC1(C)CC(N=c2c(O)c(NC3CC(C)(C)NC(C)(C)C3)c2=O)CC(C)(C)N1 [Example 1.1] : 4.6 g/100 g 10% HAc
CC1(C)CC(N=c2c(O)c(NC3CC(C)(C)NC(C)(C)C3)c2=O)CC(C)(C)N1 [Example 1.4] : < 0.1 g/100 g 10% HAc
CC1(C)CC(N=c2c(O)c(NC3CC(C)(C)NC(C)(C)C3)c2=O)CC(C)(C)N1 [Example 1.5] : 0.9 g/100 g 10% HAc

Query :: Give a short answer stating reported Solubility of pure compound in 10% acetic acid for CC1(C)CC(N=c2c(O)c(NC3CC(C)(C)NC(C)(C)C3)c2=O)CC(C)(C)N1 [Example 1.3] .
Result :: 5.0 g/100 g 10% HAc

====

protocol: Light exposure test (buckling test) with stabilizers in polyamide 12
setup.conditions: with costabilizer mixture (benzotriazole, hexamethylenediamine phenol, phosphite; 0.25% each); 0.25% by wt. stabilizer (for salts: refers to the bisamide)
measured.parameter: Stabilizing effect in polyamide 12, light exposure to break (h)
Please give a number only; it is taken to be in h.

O=c1c(N2CCCCC2)c([O-])c1=[N+]1CCCCC1 [G, reference compound] : 619
CC1(C)CC(N=c2c(O)c(NC3CC(C)(C)NC(C)(C)C3)c2=O)CC(C)(C)N1 [Example 1.3] : 976
CCN(CC)c1c([O-])c(=[N+](CC)CC)c1=O [C, reference compound] : 511

// switching to the query molecule
Query :: Identify measured Stabilizing effect in polyamide 12, light exposure to break corresponding to C[C@@H]1CN(c2c([O-])c(=[N+]3C[C@@H](C)O[C@@H](C)C3)c2=O)C[C@H](C)O1 [E, reference compound]
Result :: 473

====

protocol: Solubility of pure compound in water
Assay type: physicochemical
setup.conditions: 100° C.
measured.parameter: solubility (µg/mL)
Write the answer as a number in µg/mL, unit excluded.

Below are worked cases with known answers.
CCCCN(c1c([O-])c(=[N+](CCCC)C2CC(C)(C)NC(C)(C)C2)c1=O)C1CC(C)(C)NC(C)(C)C1 : 800
CC(C)CN(c1c([O-])c(=[N+](CC(C)C)C2CC(C)(C)NC(C)(C)C2)c1=O)C1CC(C)(C)NC(C)(C)C1 : 700
CCCCCCN(c1c([O-])c(=[N+](CCCCCC)C2CC(C)(C)NC(C)(C)C2)c1=O)C1CC(C)(C)NC(C)(C)C1 : 300
CC1(C)CC(OCCCN=c2c(O)c(NCCCOC3CC(C)(C)NC(C)(C)C3)c2=O)CC(C)(C)N1 : 9500
CCCCCCCCN(c1c([O-])c(=[N+](CCCCCCCC)C2CC(C)(C)NC(C)(C)C2)c1=O)C1CC(C)(C)NC(C)(C)C1 : 200

Let us examine a further case.
Query :: # return recorded solubility for entry CC1(C)CC(N=c2c(O)c(NC3CC(C)(C)NC(C)(C)C3)c2=O)CC(C)(C)N1
Result :: 150

====

protocol: Light exposure test (buckling test) with stabilizers in polyamide 12
setup.conditions: with costabilizer mixture (benzotriazole, hexamethylenediamine phenol, phosphite; 0.25% each); 0.25% by wt. stabilizer (for salts: refers to the bisamide)
measured.parameter: Stabilizing effect in polyamide 12, light exposure to break

Would you please look over these solved cases?
CC1(C)CC(N=c2c(O)c(NC3CC(C)(C)NC(C)(C)C3)c2=O)CC(C)(C)N1 [Example 1.2] : 1,120 h
CC1(C)CC(N=c2c(O)c(NC3CC(C)(C)NC(C)(C)C3)c2=O)CC(C)(C)N1 [Example 1] : 1,076 h
CC1(C)CC(OCCCN=c2c(O)c(NCCCOC3CC(C)(C)NC(C)(C)C3)c2=O)CC(C)(C)N1 : 1,135 h

Query :: Give me measured Stabilizing effect in polyamide 12, light exposure to break, please, for this compound: CC1(C)CC(N=c2c(O)c(NC3CC(C)(C)NC(C)(C)C3)c2=O)CC(C)(C)N1 [Example 1.5]
Result :: 1,121 h
